All figures here come from patent US6566365B1.

biological target: HCV RNA-dependent RNA polymerase (NS5B protein) (Hepatitis C virus genotype 1b); construct: The cDNA encoding the entire NS5B protein of HCV-Bk strain, genotype 1b; added initiator Met (ATG introduced before the NS5B coding region) (N); made in house; host or cells: Sf9 insect cells, recombinant baculovirus BacNS5B (pBlueBacII); experiment: In vitro HCV RNA-dependent RNA polymerase assay, triphosphate form of cytosine analogues (polyrI/oligodC or heteropolymeric RNA template, [32P]-CTP incorporation); type: biochemical, HCV-Bk strain; settings: @100 μM compound; purified recombinant NS5B
Sequence (P26663 2420-3010): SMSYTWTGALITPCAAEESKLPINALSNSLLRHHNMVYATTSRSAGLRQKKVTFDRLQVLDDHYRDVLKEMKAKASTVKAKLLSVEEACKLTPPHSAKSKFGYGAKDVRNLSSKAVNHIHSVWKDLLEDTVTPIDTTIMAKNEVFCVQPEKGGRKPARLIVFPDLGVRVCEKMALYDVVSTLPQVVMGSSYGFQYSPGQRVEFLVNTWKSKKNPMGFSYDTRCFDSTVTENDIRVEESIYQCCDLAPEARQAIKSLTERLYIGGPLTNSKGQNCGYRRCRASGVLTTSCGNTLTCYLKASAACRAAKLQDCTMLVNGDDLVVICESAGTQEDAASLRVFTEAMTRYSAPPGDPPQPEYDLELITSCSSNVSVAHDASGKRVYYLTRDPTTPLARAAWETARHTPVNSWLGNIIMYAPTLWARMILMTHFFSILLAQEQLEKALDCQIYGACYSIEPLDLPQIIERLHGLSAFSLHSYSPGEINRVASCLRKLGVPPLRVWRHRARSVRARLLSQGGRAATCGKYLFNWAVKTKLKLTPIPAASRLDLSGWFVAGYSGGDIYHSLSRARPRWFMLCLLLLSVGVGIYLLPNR
Please provide measured inhibition at 100 µM for the entries that follow.

Some solved entries appear below for comparison.
[
  {
    "MOLECULE": "Nc1ccn([C@@H]2CO[C@H](COP(=O)(O)OP(=O)(O)OP(=O)(O)O)O2)c(=O)n1 [COMPOUND#22(−)]",
    "inhibition at 100 µM": "15%"
  },
  {
    "MOLECULE": "Cc1cn([C@H]2CO[C@@H](COP(=O)(O)OP(=O)(O)OP(=O)(O)O)O2)c(=O)[nH]c1=O [COMPOUND#26(+)]",
    "inhibition at 100 µM": "47%"
  },
  {
    "MOLECULE": "Nc1nc(=O)n([C@H]2CO[C@@H](COP(=O)(O)OP(=O)(O)OP(=O)(O)O)O2)cc1F [COMPOUND#23(+)]",
    "inhibition at 100 µM": "57%"
  }
]

Your task in this section: give inhibition at 100 µM for each listed record.
1. Nc1ncn([C@@H]2CO[C@H](COP(=O)(O)OP(=O)(O)OP(=O)(O)O)O2)c(=O)n1 [COMPOUND#24(−)]
2. Nc1nc(=O)n([C@@H]2CO[C@H](COP(=O)(O)OP(=O)(O)OP(=O)(O)O)O2)cc1F (single isomer, unassigned) [COMPOUND#23(−)]

Result:
1. 8%
2. 81%
